- Assay type: in vivo, human
- stated.conditions: human, plasma, oral, 160 mg, C max, 14 patients taking enzalutamide 160 mg once daily for 49 days; mean ± standard deviation
measure: Cmax

Q. Input CNC(=O)c1ccc(N2C(=S)N(c3ccc(C#N)c(C(F)(F)F)c3)C(=O)C2(C)C)cc1F [Enzalutamide, enzalutamide, reference compound] , output reported Cmax.
A. ~17000 ng/mL

====

- Assay type: in vivo, human
- stated.conditions: human, plasma, oral, 160 mg once daily
measure: concentration at 49 d (ng/mL)
Answers are plain numbers, in ng/mL.

Q. Give concentration at 49 d for the following molecule: CNC(=O)c1ccc(N2C(=S)N(c3ccc(C#N)c(C(F)(F)F)c3)C(=O)C2(C)C)cc1F [Enzalutamide, enzalutamide, reference compound]
A. 12000

====

- Assay type: in vivo, human
- stated.conditions: substrate + enzalutamide 160 mg/day vs substrate + placebo-to-match; n = 14
What C max geometric mean ratio test/reference (90 % CI) was measured for each of the following?

Please give C max geometric mean ratio test/reference (90 % CI) for each item listed below.
1. CC(=O)C[C@@H](c1ccccc1)c1c(O)c2ccc(O)cc2oc1=O [7-Hydroxy-S-warfarin]
2. CC(O)c1ccc(CCOc2ccc(CC3SC(=O)NC3=O)cc2)nc1 (stereo not drawn) [Hydroxy-pioglitazone (M-IV), Hydroxy-pioglitazone]
3. CCc1ccc(CCOc2ccc(CC3SC(=O)NC3=O)cc2)nc1 (stereo not drawn) [pioglitazone, reference compound]

A.
["0.83 (0.71–0.99)", "0.60 (0.52–0.70)", "0.82 (0.67–1.01)"]

====

- Type: in vivo, human
- stated.conditions: substrate + enzalutamide 160 mg/day vs substrate + placebo-to-match; n = 14
measure: C max geometric mean ratio test/reference (90 % CI)

Here's what some known entries look like.
Q. Annotate the molecule COc1ccc2[nH]c([S+]([O-])Cc3ncc(C)c(OC)c3C)nc2c1 (stereo not shown) [omeprazole, reference compound] with its measured C max geometric mean ratio test/reference (90 % CI).
A. 0.38 (0.26–0.54)

Q. Provide only the value of recorded C max geometric mean ratio test/reference (90 % CI) for Cc1ncc2n1-c1ccc(Cl)cc1C(c1ccccc1F)=NC2 [midazolam, reference compound]
A. 0.23 (0.20–0.27)

Q. Tell me its C max geometric mean ratio test/reference (90 % CI) given COc1ccc2nc([S+]([O-])Cc3ncc(CO)c(OC)c3C)[nH]c2c1 (stereo not shown) [5-Hydroxy-omeprazole] as the entry.
A. 0.64 (0.50–0.83)

Moving on to another molecule below.
Q. Tell me measured C max geometric mean ratio test/reference (90 % CI) for OCc1ncc2n1-c1ccc(Cl)cc1C(c1ccccc1F)=NC2 [1-Hydroxy-midalozam, 1-hydroxy-midazolam] please.
A. 0.29 (0.24–0.35)

====

Please provide measured decrease in AUC∞ by enzalutamide for the entries that follow.
- Format: in vivo, human
- stated.conditions: enzalutamide 160 mg/day vs placebo-to-match

Q. // fetch decrease in AUC∞ by enzalutamide given entry Cc1ncc2n1-c1ccc(Cl)cc1C(c1ccccc1F)=NC2 [midazolam, reference compound]
A. 86%

Q. Read off the recorded decrease in AUC∞ by enzalutamide for COc1ccc2[nH]c([S+]([O-])Cc3ncc(C)c(OC)c3C)nc2c1 (centres unmarked) [omeprazole, reference compound]
A. 70%

Q. Consider the molecule COc1ccc2nc([S+]([O-])Cc3ncc(CO)c(OC)c3C)[nH]c2c1 (centres unmarked) [5-Hydroxy-omeprazole] . State its measured decrease in AUC∞ by enzalutamide.
A. 54%

Q. Return reported decrease in AUC∞ by enzalutamide. Input molecule: CC(=O)C[C@@H](c1ccccc1)c1c(O)c2ccccc2oc1=O [S-warfarin, reference compound]
A. 56%

Q. Query decrease in AUC∞ by enzalutamide for OCc1ncc2n1-c1ccc(Cl)cc1C(c1ccccc1F)=NC2 [1-Hydroxy-midalozam, 1-hydroxy-midazolam]
A. 76%

Q. Please report decrease in AUC∞ by enzalutamide for the following molecule: CC(=O)C[C@@H](c1ccccc1)c1c(O)c2ccc(O)cc2oc1=O [7-Hydroxy-S-warfarin]
A. 53%

Parameter requested: decrease in AUC∞ by enzalutamide. Apply to each item below.
1. CC(=O)C[C@H](c1ccccc1)c1c(O)c2ccccc2oc1=O [R-warfarin, reference compound]
2. CC(O)c1ccc(CCOc2ccc(CC3SC(=O)NC3=O)cc2)nc1 (centres unmarked) [Hydroxy-pioglitazone (M-IV), Hydroxy-pioglitazone]

A.
45%
37%
